The reported numbers originate from paper PMC11207065.

Experimental Protocol: Cell viability (MTT assay) in BV2 cells
Assay type: cell-based
Experimental Context: mouse, BV2 microglial cells, 12.5 µM, mean ± SEM (n = 5)
Measured Property: viability at 24 h, 12.5 µM

1. CC(C)c1cc2c(cc1O)[C@@]1(C)C[C@@H](O)CC(C)(C)[C@@H]1CC2: 92.3%
2. CC(=O)OC1CC(C)(C)C2CCc3cc(C(C)C)c(O)cc3C2(C(=O)O)C1 (stereo not shown): 86.2%
3. CC(C)c1cc2c(cc1O)[C@@]1(C)C[C@@H](O)CC(C)(C)[C@@H]1CC2=O [Compound 6, 2α-hydroxysugiol]: 85.7%
4. CC(C)c1cc2c(cc1O)C1(C)CC(O)C(O)C(C)(C)C1CC2 (stereo not shown): 87.4%
5. CC(C)c1cc2c(cc1O)C1(C)CC(O)C(O)C(C)(C)C1CC2=O (stereo not shown): 81.9%
6. CC(C)C1=CC(=O)C2=C(C1=O)C(O)CC1C2(C)CC(O)C(O)C1(C)C (stereo not shown): 88%
7. CC(=O)OC1CC(C)(C)C2CC3OC(=O)C2(C1)c1cc(O)c(C(C)C)cc1O3 (stereo not shown): 82.7%
